- TARGET DESC: Dihydroorotate dehydrogenase (quinone), mitochondrial (Homo sapiens)
- Sequence (Q02127 whole entry): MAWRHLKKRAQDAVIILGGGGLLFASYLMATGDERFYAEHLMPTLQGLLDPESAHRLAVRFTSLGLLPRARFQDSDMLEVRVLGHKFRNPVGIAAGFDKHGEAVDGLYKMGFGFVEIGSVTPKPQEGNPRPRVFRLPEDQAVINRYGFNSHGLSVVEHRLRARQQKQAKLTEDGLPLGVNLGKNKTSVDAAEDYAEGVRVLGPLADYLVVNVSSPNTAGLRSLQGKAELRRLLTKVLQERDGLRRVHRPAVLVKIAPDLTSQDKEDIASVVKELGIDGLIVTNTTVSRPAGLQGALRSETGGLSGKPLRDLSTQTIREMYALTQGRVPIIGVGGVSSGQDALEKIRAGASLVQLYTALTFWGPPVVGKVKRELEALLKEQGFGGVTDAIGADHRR
Exam item: assign True to entries whose IC50 is below 1 µM and False to entries at or above 1 µM. Note that a value of exactly 1 µM receives False.

Query: Given the entry CC(C)(C)CCC(=O)C(C#N)C(=O)Nc1ccc(C(F)(F)F)cc1 (stereo not drawn) [Alpha-cyano-beta-hydroxy enamide, 5] , would its reported IC50 be below 1 µM?
Reply: True

Query: Given the entry N#C/C(C(=O)Nc1ccc(C(F)(F)F)cc1)=C1\CCCCO1 [Tetrahydropyranyl derivative, 8 (Z)] , would its reported IC50 be below 1 µM?
Reply: False

Query: Given the entry N#C/C(C(=O)Nc1ccc(C(F)(F)F)cc1)=C1\CCCO1 [Tetrahydrofuranyl derivative, 7 (Z)] , would its reported IC50 be below 1 µM?
Reply: False

Query: Given the entry N#C/C(C(=O)Nc1ccc(C(F)(F)F)cc1)=C1/CCOC1 [Tetrahydrofuranyl derivative, 7 (E)] , would its reported IC50 be below 1 µM?
Reply: False

Query: Given the entry CC(=O)C(C#N)C(=O)Nc1ccccc1 (stereo not drawn) [Alpha-cyano-beta-hydroxy enamide, 2] , would its reported IC50 be below 1 µM?
Reply: False

Query: Given the entry CC(=O)C(C#N)C(=O)Nc1ccc(C#N)cc1 (stereo not drawn) [Alpha-cyano-beta-hydroxy enamide, 3] , would its reported IC50 be below 1 µM?
Reply: False

Query: Given the entry CC(C)(C)C(=O)C(C#N)C(=O)Nc1ccc(C(F)(F)F)cc1 (stereo not drawn) [Alpha-cyano-beta-hydroxy enamide, 4] , would its reported IC50 be below 1 µM?
Reply: False

Query: Given the entry N#C/C(C(=O)Nc1ccc(C(F)(F)F)cc1)=C1/CCCCO1 [Tetrahydropyranyl derivative, 8 (E)] , would its reported IC50 be below 1 µM?
Reply: False

Query: Given the entry N#Cc1ccc(NC(=O)C(C#N)C(=O)C2CC2)cc1 (stereo not drawn) [Alpha-cyano-beta-hydroxy enamide, 6] , would its reported IC50 be below 1 µM?
Reply: True
